Tested on: 377384-186-R-J1-PDC complex spheroid viability
Experiment: Anticancer human tumor 377384-186-R-J1-PDC patient-derived pancreatic carcinoma cell line growth inhibition [RAS]; active = viability on the fitted dose curve at most 10% of control; inactive = the rest
Details: second compound 1 µM; first compound 0.316 µM
Allowed answers: active, inactive

compound | class
NC1c2ccccc2OC12CCN(c1cnc3c(N4CCCc5ncccc54)n[nH]c3n1)CC2 (stereo not drawn) + C=CC(=O)N1CCN(c2nc(OCC3CCCN3C)nc3c(F)c(-c4nc(N)cc(C)c4C(F)(F)F)c(Cl)cc23)C(C)C1 | inactive
CC(=O)OC12COC1CC(O)C1(C)C(=O)C(O)C3=C(C)C(OC(=O)C(O)C(NC(=O)OC(C)(C)C)c4ccccc4)CC(O)(C(OC(=O)c4ccccc4)C21)C3(C)C (stereo not drawn) + C#Cc1c(F)ccc2cc(O)cc(-c3ncc4c(N5CC6CCC(C5)N6)nc(OCC56CCCN5CC(F)C6)nc4c3F)c12 | active

QUERY: Just curious, what result did CC(Nc1ccc2c(c1)OCCn1cc(N3C(=O)OCC3C(F)F)nc1-2)C(N)=O (stereo not drawn) + C=CC(=O)N1CCN(c2nc(OCC3CCCN3C)nc3c(F)c(-c4nc(N)cc(C)c4C(F)(F)F)c(Cl)cc23)C(C)C1 get here?
RESULT: inactive

QUERY: Just curious, what result did Cc1nc(N2CCC3(CC2)COC(C)C3N)c(CO)nc1Sc1ccnc(N)c1Cl (stereo not drawn) + C#Cc1c(F)ccc2cc(O)cc(-c3ncc4c(N5CC6CCC(C5)N6)nc(OCC56CCCN5CC(F)C6)nc4c3F)c12 get here?
RESULT: active

QUERY: Just curious, what result did CCN1CCN(Cc2ccc(Nc3ncc(F)c(-c4cc(F)c5nc(C)n(C(C)C)c5c4)n3)nc2)CC1 + C#Cc1c(F)ccc2cc(O)cc(-c3ncc4c(N5CC6CCC(C5)N6)nc(OCC56CCCN5CC(F)C6)nc4c3F)c12 get here?
RESULT: active

QUERY: Just curious, what result did C[C@@H](NC(=O)c1ncnc(N)c1Cl)c1ncc(C(=O)Nc2cc(C(F)(F)F)c(Cl)cn2)s1 + C#Cc1c(F)ccc2cc(O)cc(-c3ncc4c(N5CC6CCC(C5)N6)nc(OCC56CCCN5CC(F)C6)nc4c3F)c12 get here?
RESULT: active

QUERY: Just curious, what result did CCN1CCN(Cc2ccc(Nc3ncc(F)c(-c4cc(F)c5nc(C)n(C(C)C)c5c4)n3)nc2)CC1 + C=CC(=O)N1CCN(c2nc(OCC3CCCN3C)nc3c(F)c(-c4nc(N)cc(C)c4C(F)(F)F)c(Cl)cc23)C(C)C1 get here?
RESULT: inactive

QUERY: Just curious, what result did Nc1ccn(C2OC(CO)C(O)C2(F)F)c(=O)n1 (stereo not drawn) + C=CC(=O)N1CCN(c2nc(OCC3CCCN3C)nc3c(F)c(-c4nc(N)cc(C)c4C(F)(F)F)c(Cl)cc23)C(C)C1 get here?
RESULT: active

QUERY: Just curious, what result did CC(=O)OC12COC1CC(O)C1(C)C(=O)C(O)C3=C(C)C(OC(=O)C(O)C(NC(=O)OC(C)(C)C)c4ccccc4)CC(O)(C(OC(=O)c4ccccc4)C21)C3(C)C (stereo not drawn) + C=CC(=O)N1CCN(c2nc(OCC3CCCN3C)nc3c(F)c(-c4nc(N)cc(C)c4C(F)(F)F)c(Cl)cc23)C(C)C1 get here?
RESULT: inactive

QUERY: Just curious, what result did O=C(c1ccc(F)c(F)c1Nc1ccc(I)cc1F)N1CC(O)([C@@H]2CCCCN2)C1 + C=CC(=O)N1CCN(c2nc(OCC3CCCN3C)nc3c(F)c(-c4nc(N)cc(C)c4C(F)(F)F)c(Cl)cc23)C(C)C1 get here?
RESULT: active

QUERY: Just curious, what result did CCC(CC)c1cc(NC2CCC(N)C2)n2nccc2n1 (stereo not drawn) + C=CC(=O)N1CCN(c2nc(OCC3CCCN3C)nc3c(F)c(-c4nc(N)cc(C)c4C(F)(F)F)c(Cl)cc23)C(C)C1 get here?
RESULT: inactive

QUERY: Just curious, what result did O=C(c1ccc(F)c(F)c1Nc1ccc(I)cc1F)N1CC(O)([C@@H]2CCCCN2)C1 + C#Cc1c(F)ccc2cc(O)cc(-c3ncc4c(N5CC6CCC(C5)N6)nc(OCC56CCCN5CC(F)C6)nc4c3F)c12 get here?
RESULT: active

QUERY: Just curious, what result did CC(C)NCC(C(=O)N1CCN(c2ncnc3c2C(C)CC3O)CC1)c1ccc(Cl)cc1 (stereo not drawn) + C=CC(=O)N1CCN(c2nc(OCC3CCCN3C)nc3c(F)c(-c4nc(N)cc(C)c4C(F)(F)F)c(Cl)cc23)C(C)C1 get here?
RESULT: inactive

QUERY: Just curious, what result did CC(C)NCC(C(=O)N1CCN(c2ncnc3c2C(C)CC3O)CC1)c1ccc(Cl)cc1 (stereo not drawn) + C#Cc1c(F)ccc2cc(O)cc(-c3ncc4c(N5CC6CCC(C5)N6)nc(OCC56CCCN5CC(F)C6)nc4c3F)c12 get here?
RESULT: active

###

Would you kindly list viability, T/C for each of these compounds?
Tested on: 377384-186-R-J1-PDC complex spheroid viability
Experiment: Anticancer human tumor 377384-186-R-J1-PDC cell line growth inhibition [RAS];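 also: spheroids exposed to compounds for seven days before readout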
Settings: second compound 0.1 µM; first compound 0.316 µM; active compounds read low
Numbers only, in %.

compound | viability, T/C, %
CC(=O)OC12COC1CC(O)C1(C)C(=O)C(O)C3=C(C)C(OC(=O)C(O)C(NC(=O)OC(C)(C)C)c4ccccc4)CC(O)(C(OC(=O)c4ccccc4)C21)C3(C)C (stereo not given) + C#Cc1c(F)ccc2cc(O)cc(-c3ncc4c(N5CC6CCC(C5)N6)nc(OCC56CCCN5CC(F)C6)nc4c3F)c12 | 2.12

The following compounds each have a reported value; give each one's viability, T/C.
1. CC(Nc1ccc2c(c1)OCCn1cc(N3C(=O)OCC3C(F)F)nc1-2)C(N)=O (stereo not given) + C=CC(=O)N1CCN(c2nc(OCC3CCCN3C)nc3c(F)c(-c4nc(N)cc(C)c4C(F)(F)F)c(Cl)cc23)C(C)C1
2. C[C@@H](NC(=O)c1ncnc(N)c1Cl)c1ncc(C(=O)Nc2cc(C(F)(F)F)c(Cl)cn2)s1 + C#Cc1c(F)ccc2cc(O)cc(-c3ncc4c(N5CC6CCC(C5)N6)nc(OCC56CCCN5CC(F)C6)nc4c3F)c12
3. Nc1ccn(C2OC(CO)C(O)C2(F)F)c(=O)n1 (stereo not given) + C#Cc1c(F)ccc2cc(O)cc(-c3ncc4c(N5CC6CCC(C5)N6)nc(OCC56CCCN5CC(F)C6)nc4c3F)c12
4. C=CC(=O)N1CCN(c2nc(OCC3CCCN3C)nc3c(F)c(-c4nc(N)cc(C)c4C(F)(F)F)c(Cl)cc23)C(C)C1 (stereo not given) + C#Cc1c(F)ccc2cc(O)cc(-c3ncc4c(N5CC6CCC(C5)N6)nc(OCC56CCCN5CC(F)C6)nc4c3F)c12
5. CCC(CC)c1cc(NC2CCC(N)C2)n2nccc2n1 (stereo not given) + C#Cc1c(F)ccc2cc(O)cc(-c3ncc4c(N5CC6CCC(C5)N6)nc(OCC56CCCN5CC(F)C6)nc4c3F)c12

RESULT:
[60.5, 14.1, 1.8, 5.71, 7.8]

The following compounds each have a reported value; give each one's viability, T/C.
1. C=CC(=O)Nc1cc(Nc2nccc(-c3cn(C)c4ccccc34)n2)c(OC)cc1N(C)CCN(C)C + C=CC(=O)N1CCN(c2nc(OCC3CCCN3C)nc3c(F)c(-c4nc(N)cc(C)c4C(F)(F)F)c(Cl)cc23)C(C)C1
2. CCC(CC)c1cc(NC2CCC(N)C2)n2nccc2n1 (stereo not given) + C=CC(=O)N1CCN(c2nc(OCC3CCCN3C)nc3c(F)c(-c4nc(N)cc(C)c4C(F)(F)F)c(Cl)cc23)C(C)C1
3. CC(Nc1ccc2c(c1)OCCn1cc(N3C(=O)OCC3C(F)F)nc1-2)C(N)=O (stereo not given) + C#Cc1c(F)ccc2cc(O)cc(-c3ncc4c(N5CC6CCC(C5)N6)nc(OCC56CCCN5CC(F)C6)nc4c3F)c12
4. O=C(c1ccc(F)c(F)c1Nc1ccc(I)cc1F)N1CC(O)([C@@H]2CCCCN2)C1 + C#Cc1c(F)ccc2cc(O)cc(-c3ncc4c(N5CC6CCC(C5)N6)nc(OCC56CCCN5CC(F)C6)nc4c3F)c12

RESULT:
[70, 112, 3.06, 0.58]

###

Test system: 377384-186-R-J1-PDC complex spheroid viability
Test: Anticancer human tumor 377384-186-R-J1-PDC cell line growth inhibition [RAS]; active = viability on the fitted dose curve at most 10% of control; inactive = the rest;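 also: spheroids exposed to compounds for seven days before readout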
Settings: second compound 0.00949 µM; first compound 0.0949 µM
Allowed answers: active, inactive

Look over these answered cases.
compound | class
CC1(C)CCC(Nc2ncc(C(F)(F)F)c(-c3c[nH]c4c(P(C)(C)=O)c(C#N)ccc34)n2)CN1 (centres undefined) + CCn1c(-c2cc(N3CCN(C)CC3)cnc2C(C)OC)c2c3cc(ccc31)-c1csc(n1)CC(NC(=O)C1CC1C)C(=O)N1CCCC(N1)C(=O)OCC(C)(C)C2 | active
CC1(C)CCC(Nc2ncc(C(F)(F)F)c(-c3c[nH]c4c(P(C)(C)=O)c(C#N)ccc34)n2)CN1 (centres undefined) + CCn1c(-c2cccnc2C(C)OC)c2c3cc(ccc31)N1CCOC(CC(NC(=O)C(C(C)C)N(C)C(=O)C3(F)CCN(C(=O)C#CC(C)(C)N(C)C)CC3)C(=O)N3CCCC(N3)C(=O)OCC(C)(C)C2)C1 | inactive
CCc1c2c(nc3ccc(O)cc13)-c1cc3c(c(=O)n1C2)COC(=O)[C@]3(O)CC + CCn1c(-c2cccnc2C(C)OC)c2c3cc(ccc31)N1CCOC(CC(NC(=O)C(C(C)C)N(C)C(=O)C3(F)CCN(C(=O)C#CC(C)(C)N(C)C)CC3)C(=O)N3CCCC(N3)C(=O)OCC(C)(C)C2)C1 | active

QUERY: Just curious, what result did CCc1c2c(nc3ccc(O)cc13)-c1cc3c(c(=O)n1C2)COC(=O)[C@]3(O)CC + CCn1c(-c2cc(N3CCN(C)CC3)cnc2C(C)OC)c2c3cc(ccc31)-c1csc(n1)CC(NC(=O)C1CC1C)C(=O)N1CCCC(N1)C(=O)OCC(C)(C)C2 get here?
RESULT: active

Hey, just so you know, these numbers are from PubChem BioAssay AID2060903.
